# ASSAY SYSTEM: AHR (Mus musculus)
# Sequence (P30561 1-848 P471L/N533S/M589L): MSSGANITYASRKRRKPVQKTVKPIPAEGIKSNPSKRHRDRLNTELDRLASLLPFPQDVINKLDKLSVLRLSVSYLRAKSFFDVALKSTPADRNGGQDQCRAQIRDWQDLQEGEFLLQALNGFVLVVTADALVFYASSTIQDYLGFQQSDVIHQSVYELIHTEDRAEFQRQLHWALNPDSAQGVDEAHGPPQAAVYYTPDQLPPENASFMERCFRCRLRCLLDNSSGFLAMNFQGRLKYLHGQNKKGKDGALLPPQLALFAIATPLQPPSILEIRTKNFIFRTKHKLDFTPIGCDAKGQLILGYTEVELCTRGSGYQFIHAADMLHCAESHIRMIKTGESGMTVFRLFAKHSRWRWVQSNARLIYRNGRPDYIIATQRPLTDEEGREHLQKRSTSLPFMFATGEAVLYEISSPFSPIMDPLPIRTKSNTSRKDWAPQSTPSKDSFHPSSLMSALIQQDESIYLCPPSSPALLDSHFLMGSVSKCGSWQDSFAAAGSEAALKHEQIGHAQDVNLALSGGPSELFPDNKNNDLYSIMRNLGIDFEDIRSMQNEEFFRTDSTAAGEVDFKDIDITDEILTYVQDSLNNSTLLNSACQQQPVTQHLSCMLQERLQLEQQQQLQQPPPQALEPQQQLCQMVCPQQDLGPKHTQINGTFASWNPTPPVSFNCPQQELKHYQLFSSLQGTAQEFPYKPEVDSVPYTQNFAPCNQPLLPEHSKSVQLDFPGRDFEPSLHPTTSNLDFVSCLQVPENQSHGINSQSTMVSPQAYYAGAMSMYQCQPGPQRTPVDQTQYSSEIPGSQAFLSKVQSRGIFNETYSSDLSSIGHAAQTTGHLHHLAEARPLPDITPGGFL
# ASSAY PROCEDURE: In vitro assay 3: antagonism in mouse cell line (AHR transactivation, firefly luciferase reporter, kynurenic acid prestimulated)
# Format: cell-based
# EXPERIMENTAL CONTEXT: mouse Hepa 1c1c7 cells, 200 μM kynurenic acid, 20 hours, read-out: AHR Antagonism Mouse IC50
In this section, each of the molecules is paired with its reported log10 IC50.
RESULT TYPE: log10 IC50 (log10 of the value in nM)

- O=C1NCCNC[C@H]1Nc1nc2cccc(C(F)(F)F)c2c2nc(-c3ccc(F)cc3)nn12: 2.88
- COc1ccc(-c2nc3c4cc(C(C)C)ccc4nc(N[C@@H]4CCCCNC4=O)n3n2)cc1: 1.50
- COc1ccc(-c2nc3c4cccc(Br)c4nc(N[C@H]4CCCCNC4=O)n3n2)c(OC(F)(F)F)c1: 1.32
- COc1ccc(-c2nc3c4ccccc4nc(N[C@@H]4CCCCNC4=O)n3n2)cc1C(F)(F)F: 0.82
- CC[C@H](Nc1nc2c(Br)cccc2c2nc(-c3ccc(C#N)cc3)nn12)C(N)=O: 1.24
- Cc1cc(-c2nc3c4ccccc4nc(N[C@@H]4CCN(C)C4=O)n3n2)cs1: 1.56
- O=C1NCCCC[C@H]1Nc1nc2ccccc2c2nc(-c3ccc(F)nc3)nn12: -0.03
- O=C1NCCCC[C@H]1Nc1nc2ccccc2c2nc(-c3cccc(C(F)(F)F)c3)nn12: 0.51
- O=C1NCCCC[C@H]1Nc1nc2c(C(F)(F)F)cccc2c2nc(-c3cc[nH]n3)nn12: 1.18
- O=C1NCCC[C@H]1Nc1nc2ccccc2c2nc(-c3cccc(OC(F)(F)F)c3)nn12: 2.05
- COc1ccc(-c2nc3c4cccc(Cl)c4nc(N[C@@H]4CCCCNC4=O)n3n2)cc1: 0.07
- COc1cccc(-c2nc3c4ccccc4nc(N[C@H](C(N)=O)C(C)C)n3n2)c1: 2.06
- COc1ccc(-c2nc3c4cccc(C(F)(F)F)c4nc(N[C@H]4CCCCNC4=O)n3n2)cc1: 1.64
- O=C1NCCNC[C@H]1Nc1nc2ccccc2c2nc(-c3ccco3)nn12: 2.60
- O=C1NCCCC[C@H]1Nc1nc2ccccc2c2nc(-c3cccnc3C(F)(F)F)nn12: 1.09
- Cn1cc(-c2nc3c4c(F)cccc4nc(N[C@@H]4CCCCNC4=O)n3n2)cn1: 1.82

###

# ASSAY SYSTEM: AHR (Mus musculus)
# Sequence (P30561 1-848 P471L/N533S/M589L): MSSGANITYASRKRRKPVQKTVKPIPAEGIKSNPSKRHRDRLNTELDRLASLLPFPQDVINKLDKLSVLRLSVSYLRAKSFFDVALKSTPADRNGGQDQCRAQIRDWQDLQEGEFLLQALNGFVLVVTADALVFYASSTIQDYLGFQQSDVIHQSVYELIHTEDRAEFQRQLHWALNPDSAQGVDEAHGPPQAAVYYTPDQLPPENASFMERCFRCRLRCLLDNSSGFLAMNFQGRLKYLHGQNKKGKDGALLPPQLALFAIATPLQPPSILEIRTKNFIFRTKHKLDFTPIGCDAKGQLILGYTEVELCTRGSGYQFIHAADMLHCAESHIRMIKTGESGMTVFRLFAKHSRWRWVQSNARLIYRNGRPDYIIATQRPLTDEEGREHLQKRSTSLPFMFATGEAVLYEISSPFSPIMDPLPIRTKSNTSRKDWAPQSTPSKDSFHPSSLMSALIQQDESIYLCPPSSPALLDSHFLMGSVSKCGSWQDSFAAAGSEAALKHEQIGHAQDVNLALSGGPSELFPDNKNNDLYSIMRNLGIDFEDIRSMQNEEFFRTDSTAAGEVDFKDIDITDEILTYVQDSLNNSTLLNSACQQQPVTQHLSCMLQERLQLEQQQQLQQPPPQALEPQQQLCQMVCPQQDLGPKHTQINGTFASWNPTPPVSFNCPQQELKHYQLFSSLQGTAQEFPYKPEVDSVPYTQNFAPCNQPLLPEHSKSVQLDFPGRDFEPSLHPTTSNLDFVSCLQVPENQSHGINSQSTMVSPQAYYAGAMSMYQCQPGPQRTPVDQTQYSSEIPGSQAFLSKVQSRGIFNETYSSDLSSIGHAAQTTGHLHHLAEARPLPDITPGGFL
# ASSAY PROCEDURE: In vitro assay 3: antagonism in mouse cell line (AHR transactivation, firefly luciferase reporter, kynurenic acid prestimulated)
# Assay type: cell-based
# EXPERIMENTAL CONTEXT: mouse Hepa 1c1c7 cells, 200 μM kynurenic acid, 20 hours, read-out: AHR Antagonism Mouse IC50
# Protocol: Examples were tested in selected biological assays one or more times. […] Firefly luciferase activity was determined by the SteadyGlo Luciferase Assay System (Promega, #E2550).
pIC50: −log10 of the molar value.
RESULT TYPE: pIC50

- COc1ccc(-c2nc3c4cccc(Br)c4nc(N[C@@H]4CCCNC4=O)n3n2)cc1 [Example 223]: 6.95
- COc1ccc(-c2nc3c4c(Br)cccc4nc(N[C@@H]4CCCCNC4=O)n3n2)cc1 [Example 164]: 8.34
- COc1cccc(-c2nc3c4ccc(F)cc4nc(N[C@@H]4CCNC4=O)n3n2)c1 [Example 152]: 6.45
- Cn1cc(-c2nc3c4ccccc4nc(NC4CNCCNC4=O)n3n2)cn1 (single isomer, unassigned) [Example 23]: 5.47
- Cc1cscc1-c1nc2c3ccccc3nc(N[C@H]3CCCCNC3=O)n2n1 [Example 539]: 8.11
- COc1cccc(-c2nc3c4ccccc4nc(NC(C)(C)C(N)=O)n3n2)c1 [Example 98]: 5.94
- O=C1NCCCC[C@H]1Nc1nc2ccccc2c2nc(-c3ccccn3)nn12 [Example 124]: 7.27
- CCC[C@@H](Nc1nc2ccccc2c2nc(-c3ccc(S(C)(=O)=O)cc3)nn12)C(=O)NC [Example 377]: 7.91

###

# ASSAY SYSTEM: AHR (Mus musculus, UniProt P30561)
# ASSAY PROCEDURE: In vitro assay 3: antagonism in mouse cell line (AHR transactivation, firefly luciferase reporter, kynurenic acid prestimulated)
# Format: cell-based
# EXPERIMENTAL CONTEXT: Hepa 1c1c7 cells, 200 μM kynurenic acid, 20 hours, firefly luciferase reporter, read-out: AHR Antagonism Mouse IC50
RESULT TYPE: IC50 (µM)

• COc1ccc(-c2nc3c4ccccc4nc(N[C@H](C)C(=O)NCCN4CCN(C)CC4)n3n2)cc1 [Example 881] = 0.0122
• CC(C)n1cc(-c2nc3c4cccc(S(C)(=O)=O)c4nc(N[C@@H]4CNCCNC4=O)n3n2)cn1 [Example 944] = 4.62
• CC(C)n1cc(-c2nc3c4cccc(S(C)(=O)=O)c4nc(N[C@@H]4CCCCNC4=O)n3n2)cn1 [Example 846] = 0.232
• Cn1cc(-c2nc3c4cccc(Br)c4nc(N[C@H]4CNCCNC4=O)n3n2)cn1 [Example 983] = 0.189
• C[C@@H](Nc1nc2c(Br)cccc2c2nc(-c3cnn(C)c3)nn12)C(=O)NCCN1CCNCC1 [Example 993] = 4.59
• CC(C)n1cc(-c2nc3c4cccc(Br)c4nc(N[C@H]4CNCCNC4=O)n3n2)cn1 [Example 984] = 0.0412
• COc1ccc(-c2nc3c4cccc(S(=O)(=O)C(C)C)c4nc(N[C@@H]4CNCCNC4=O)n3n2)cc1 [Example 941] = 0.0675
• C[C@@H](Nc1nc2ccccc2c2nc(-c3ccccc3OC(F)(F)F)nn12)C(=O)NCCN(C)C [Example 792] = 0.0287
• COCc1cccc2c1nc(N[C@@H]1CCCCNC1=O)n1nc(-c3ccc(OC)cc3)nc21 [Example 1003] = 0.00406
• COc1ccc(-c2nc3c4cccc(N5CCCC5=O)c4nc(N[C@@H]4CCCCNC4=O)n3n2)cc1 [Example 1001] = 5.04
• C[C@@H]1CN(C(=O)[C@@H](C)Nc2nc3c(Br)cccc3c3nc(-c4cnn(C)c4)nn23)CCO1 [Example 906] = 0.0195
• COC(=O)N1CCN(C(=O)[C@@H](C)Nc2nc3c(Br)cccc3c3nc(-c4ccc(OC)cc4)nn23)CC1 [Example 894] = 0.00133
• COc1ccc(-c2nc3c4cccc(CSC)c4nc(N[C@@H]4CCCCNC4=O)n3n2)cc1 [Example 863] = 0.0129
• O=C1NCCCC[C@H]1Nc1nc2c(Br)cccc2c2nc(-c3cnn(CC4CC4)c3)nn12 [Example 826] = 0.00226
• CNCCNC(=O)[C@@H](C)Nc1nc2c(Br)cccc2c2nc(-c3cnn(C)c3)nn12 [Example 991] = 0.0766

All values here come from patent US20230113037A1.
